target: Human SARS Coronavirus Spike S1 Subunit Protein (His Tag) (Sino 40150-V08B1) (Human SARS Coronavirus), P59594; assay: Luminex bead assay, antigen on microspheres, antibody supernatant; settings: remark: other sources report otherwise
Give measured Binding signal (MFI) for each item. Keep answers brief.
One number for each entry, in MFI.

Worked cases, answers included:
binder="mAb11006 (antibody, V domains shown) VH: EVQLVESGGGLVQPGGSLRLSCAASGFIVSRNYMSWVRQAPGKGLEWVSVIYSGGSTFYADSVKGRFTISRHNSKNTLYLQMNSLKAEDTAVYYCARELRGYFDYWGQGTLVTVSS VL: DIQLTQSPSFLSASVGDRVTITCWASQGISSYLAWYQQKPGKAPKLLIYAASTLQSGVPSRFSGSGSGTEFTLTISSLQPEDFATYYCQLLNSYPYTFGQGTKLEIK" test_result=339
binder="mAb11004 (antibody, V domains shown) VH: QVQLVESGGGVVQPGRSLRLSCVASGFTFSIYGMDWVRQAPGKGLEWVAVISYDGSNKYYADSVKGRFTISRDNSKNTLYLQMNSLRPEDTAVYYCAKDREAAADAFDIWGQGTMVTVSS VL: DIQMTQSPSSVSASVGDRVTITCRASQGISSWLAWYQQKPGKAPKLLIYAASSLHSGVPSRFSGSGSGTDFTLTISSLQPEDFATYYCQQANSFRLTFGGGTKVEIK" test_result=33
binder="mAb11008 (antibody, V domains shown) VH: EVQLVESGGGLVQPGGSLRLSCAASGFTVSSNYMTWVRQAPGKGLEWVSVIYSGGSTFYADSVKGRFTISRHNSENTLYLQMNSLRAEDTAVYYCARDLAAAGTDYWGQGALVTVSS VL: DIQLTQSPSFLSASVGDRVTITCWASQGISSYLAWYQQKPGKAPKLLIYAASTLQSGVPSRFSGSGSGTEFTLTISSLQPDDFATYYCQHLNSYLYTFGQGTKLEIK" test_result=31

Then there is this binder:
Give the measured Binding signal (MFI) of mAb10998 (antibody, V domains shown) VH: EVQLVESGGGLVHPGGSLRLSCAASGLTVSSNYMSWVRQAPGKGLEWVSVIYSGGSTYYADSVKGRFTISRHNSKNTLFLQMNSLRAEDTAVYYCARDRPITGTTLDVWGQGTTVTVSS VL: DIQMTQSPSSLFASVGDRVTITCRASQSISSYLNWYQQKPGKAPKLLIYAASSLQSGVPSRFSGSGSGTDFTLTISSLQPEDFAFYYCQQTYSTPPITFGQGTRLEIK .
16
